- targetDesc: Nav 1.7 (Homo sapiens (Human), UniProt Q15858)
- Sequence (Q15858 whole entry): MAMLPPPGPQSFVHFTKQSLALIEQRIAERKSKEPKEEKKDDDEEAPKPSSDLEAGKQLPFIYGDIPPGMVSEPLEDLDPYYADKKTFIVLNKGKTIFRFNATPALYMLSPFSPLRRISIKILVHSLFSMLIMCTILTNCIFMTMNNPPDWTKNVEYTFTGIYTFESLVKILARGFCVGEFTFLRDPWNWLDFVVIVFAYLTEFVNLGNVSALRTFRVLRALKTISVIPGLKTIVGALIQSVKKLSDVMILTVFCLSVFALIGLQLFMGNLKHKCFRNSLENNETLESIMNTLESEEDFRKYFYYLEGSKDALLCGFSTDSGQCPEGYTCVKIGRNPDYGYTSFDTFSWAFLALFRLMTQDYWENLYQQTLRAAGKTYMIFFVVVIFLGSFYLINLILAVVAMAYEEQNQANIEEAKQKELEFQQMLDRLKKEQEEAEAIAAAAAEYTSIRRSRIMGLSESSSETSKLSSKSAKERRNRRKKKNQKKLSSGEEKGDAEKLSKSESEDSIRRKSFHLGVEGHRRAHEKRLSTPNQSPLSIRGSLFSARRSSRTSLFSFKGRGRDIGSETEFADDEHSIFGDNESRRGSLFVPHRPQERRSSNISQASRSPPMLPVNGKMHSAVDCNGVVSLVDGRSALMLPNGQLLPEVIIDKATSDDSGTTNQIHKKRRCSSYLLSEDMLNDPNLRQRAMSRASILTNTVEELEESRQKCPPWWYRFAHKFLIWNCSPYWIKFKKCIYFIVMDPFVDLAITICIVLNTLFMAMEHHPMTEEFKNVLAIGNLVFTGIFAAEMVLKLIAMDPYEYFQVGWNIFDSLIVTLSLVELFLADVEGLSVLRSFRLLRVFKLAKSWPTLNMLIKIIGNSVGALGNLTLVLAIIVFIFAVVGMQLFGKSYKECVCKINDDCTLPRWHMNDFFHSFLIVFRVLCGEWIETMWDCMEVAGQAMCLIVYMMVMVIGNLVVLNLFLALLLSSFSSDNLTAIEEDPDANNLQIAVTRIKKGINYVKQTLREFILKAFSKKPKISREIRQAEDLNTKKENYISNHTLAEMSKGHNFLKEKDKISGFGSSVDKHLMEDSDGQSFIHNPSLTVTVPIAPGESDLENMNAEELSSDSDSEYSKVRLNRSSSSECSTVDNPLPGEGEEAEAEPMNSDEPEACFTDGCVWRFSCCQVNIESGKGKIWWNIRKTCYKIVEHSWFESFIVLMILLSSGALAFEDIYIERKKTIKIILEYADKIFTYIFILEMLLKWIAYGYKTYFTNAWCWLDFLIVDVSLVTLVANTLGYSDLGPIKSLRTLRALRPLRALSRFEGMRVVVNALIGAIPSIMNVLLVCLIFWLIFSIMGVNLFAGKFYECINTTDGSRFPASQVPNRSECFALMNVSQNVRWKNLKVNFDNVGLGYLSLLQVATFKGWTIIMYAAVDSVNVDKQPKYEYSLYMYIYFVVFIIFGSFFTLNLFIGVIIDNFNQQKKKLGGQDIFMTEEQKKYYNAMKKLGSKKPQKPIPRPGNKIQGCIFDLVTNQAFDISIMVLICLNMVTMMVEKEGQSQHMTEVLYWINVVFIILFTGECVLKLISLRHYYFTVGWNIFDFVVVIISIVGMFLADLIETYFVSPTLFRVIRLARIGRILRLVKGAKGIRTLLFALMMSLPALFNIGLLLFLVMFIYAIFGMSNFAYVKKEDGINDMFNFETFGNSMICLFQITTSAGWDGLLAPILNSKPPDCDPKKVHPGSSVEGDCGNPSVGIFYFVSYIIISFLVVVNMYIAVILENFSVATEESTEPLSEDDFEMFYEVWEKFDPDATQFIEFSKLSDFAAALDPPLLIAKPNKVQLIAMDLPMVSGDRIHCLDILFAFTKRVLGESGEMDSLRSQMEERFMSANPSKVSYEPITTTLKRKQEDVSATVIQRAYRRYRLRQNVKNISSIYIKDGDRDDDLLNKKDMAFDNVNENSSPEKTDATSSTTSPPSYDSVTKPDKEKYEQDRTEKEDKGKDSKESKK
- procedureDetails: in-vitro Nav 1.7 PX (IC50)
- Type: cell-based
pIC50: −log10 of the molar value.
propertyMeasured: pIC50

• COc1ccc(-c2cccc(F)c2)cc1-n1c(=O)ccc2cc(S(=O)(=O)Nc3ccon3)ccc21 [Example 482] = 7.10
• COc1cc(-c2ccc(Cl)c(C)c2)c(C)cc1-n1c(=O)ccc2cc(S(=O)(=O)Nc3ccon3)ccc21 (atropisomer, axis not shown; (M)) [Example 422] = 5.22
• COc1ccc(-c2cccnc2F)cc1-n1c(=O)ccc2cc(S(=O)(=O)Nc3ccon3)ccc21 = 5.61

(I) COc1cc(-c2ccc(F)c(Cl)c2)ccc1-n1c(=O)ccc2cc(S(=O)(=O)Nc3ccon3)ccc21 (atropisomer, axis not shown; (P)) [Example 578]
(II) COc1cc(-c2cc(F)cc(Cl)c2)c(F)cc1-n1c(=O)ccc2cc(S(=O)(=O)Nc3cccnn3)ccc21 (atropisomer, axis not shown; (P))
(III) COc1cc(Br)c(F)cc1-n1c(=O)ccc2cc(S(=O)(=O)Nc3cc(OCC4CCC4)ncn3)ccc21 (atropisomer, axis not shown; (P))
Input: Order by pIC50, ascending. # respond with the labels, arranged in the requested order
Output: III, I, II
(III: 5.47, I: 7.80, II: 8.15)

Entry source: patent US9212182B2
